System: intracellular amastigotes of L. (V) panamensis
test_method_notes: Leishmanicidal activity against intracellular amastigotes (GFP, flow cytometry, 72 h)
Format: cell-based, Leishmania (Viannia) panamensis
experimental_context: LC50 U-937 / EC50 intracellular amastigotes
# SI (Selectivity Index = LC50/EC50) per record follows

Solved entries:
# compound, SI (Selectivity Index = LC50/EC50)
rows = [
    ("Cc1cc(=O)oc2cc(OCCCCOc3cc(Cl)ccc3Oc3ccc(Cl)cc3Cl)ccc12 [Compound 17]", ">7.3"),
    ("COc1ccc(/C=C/C(=O)c2ccc(OCCCCCOc3cc(Cl)ccc3Oc3ccc(Cl)cc3Cl)cc2)cc1OC [Compound 9]", ">14.8"),
]

Determine its reported SI (Selectivity Index = LC50/EC50): COc1ccc(/C=C/C(=O)c2ccc(OCCCCOc3cc(Cl)ccc3Oc3ccc(Cl)cc3Cl)cc2)cc1OC [Compound 8]
>19.6

Determine its reported SI (Selectivity Index = LC50/EC50): COc1ccc(/C=C/C(=O)c2ccc(OCCCOc3cc(Cl)ccc3Oc3ccc(Cl)cc3Cl)cc2)cc1OC [Compound 7]
>21.3
